Provenance of the data: patent US20180037651A1

Quick list: MFI per entry.
Target: T1, human GPRC5D (human, UniProt Q9NZD1 1-345)
T1 construct: on transfected HEK293/RBL cells or endogenous on myeloma cells (H929, MM1R, OPM2, LP1, JIM3, patient plasma cells); also called G protein-coupled receptor class C group 5 member D; hGPRC5D
T1 sequence (Q9NZD1 whole entry): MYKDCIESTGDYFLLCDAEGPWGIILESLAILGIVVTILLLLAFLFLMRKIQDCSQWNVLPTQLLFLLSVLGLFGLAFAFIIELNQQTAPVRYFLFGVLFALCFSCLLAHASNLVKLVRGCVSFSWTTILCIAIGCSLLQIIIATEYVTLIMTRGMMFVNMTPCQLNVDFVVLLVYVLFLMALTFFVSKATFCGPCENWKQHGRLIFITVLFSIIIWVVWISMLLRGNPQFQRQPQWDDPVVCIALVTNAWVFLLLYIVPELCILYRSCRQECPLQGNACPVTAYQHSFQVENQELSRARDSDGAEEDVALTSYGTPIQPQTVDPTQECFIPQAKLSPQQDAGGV
Assay: FACS, human GPRC5D cells
Experimental endpoint: MFI

INSERT INTO assay_data (binder, recorded_value) VALUES
  ('GC5B476 (antibody, V domains shown, GC5B164 PTM variant; also called GC5H273) VH: EVQLVQSGAEVKKPGESLKISCKGSGYSFTSYYIGWVRQMPGKGLEWMGIIYPGSSDTRYSPSFQGQVTISADKSISTAYLQWSSLKASDTAMYYCARVYSFGGRHKALFDYWGQGTLVTVSS VL: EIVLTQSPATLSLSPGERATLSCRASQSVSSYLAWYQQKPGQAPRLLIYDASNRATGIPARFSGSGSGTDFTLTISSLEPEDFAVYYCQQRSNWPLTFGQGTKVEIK', '> 10000 mfi'),
  ('GC5B487 (antibody, V domains shown, GC5B164 PTM variant; also called GC5H262) VH: EVQLVQSGAEVKKPGESLKISCKGSGYSFTSYVIGWVRQMPGKGLEWMGIIYPGESDTRYSPSFQGQVTISADKSISTAYLQWSSLKASDTAMYYCARVYSFGGRHKALFDYWGQGTLVTVSS VL: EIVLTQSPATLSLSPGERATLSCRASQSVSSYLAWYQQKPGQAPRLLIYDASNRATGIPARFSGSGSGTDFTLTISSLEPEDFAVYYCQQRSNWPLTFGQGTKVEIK', '1000 to 10000 mfi'),
  ('GC5B498 (antibody, V domains shown, GC5B164 PTM variant; also called GC5H251) VH: EVQLVQSGAEVKKPGESLKISCKGSGYSFTSYFIGWVRQMPGKGLEWMGIIYPGDSDTRYSPSFQGQVTISADKSISTAYLQWSSLKASDTAMYYCARVYSFGGRHKALFDYWGQGTLVTVSS VL: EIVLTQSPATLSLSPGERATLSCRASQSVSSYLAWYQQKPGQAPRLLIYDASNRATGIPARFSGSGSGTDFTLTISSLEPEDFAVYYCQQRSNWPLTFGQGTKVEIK', '> 10000 mfi');
